Entries and their measured KD follow.
Biological target: T1, human transferrin receptor (hTfR) (human, UniProt P02786 89-760)
T1 construct: used as 0.5 uM hTfR dimer solution, immobilised on an NTA sensor chip (Ni capture plus EDC/NHS coupling); also called human TfR; TfR1
T1 sequence (P02786 89-760 limits assumed): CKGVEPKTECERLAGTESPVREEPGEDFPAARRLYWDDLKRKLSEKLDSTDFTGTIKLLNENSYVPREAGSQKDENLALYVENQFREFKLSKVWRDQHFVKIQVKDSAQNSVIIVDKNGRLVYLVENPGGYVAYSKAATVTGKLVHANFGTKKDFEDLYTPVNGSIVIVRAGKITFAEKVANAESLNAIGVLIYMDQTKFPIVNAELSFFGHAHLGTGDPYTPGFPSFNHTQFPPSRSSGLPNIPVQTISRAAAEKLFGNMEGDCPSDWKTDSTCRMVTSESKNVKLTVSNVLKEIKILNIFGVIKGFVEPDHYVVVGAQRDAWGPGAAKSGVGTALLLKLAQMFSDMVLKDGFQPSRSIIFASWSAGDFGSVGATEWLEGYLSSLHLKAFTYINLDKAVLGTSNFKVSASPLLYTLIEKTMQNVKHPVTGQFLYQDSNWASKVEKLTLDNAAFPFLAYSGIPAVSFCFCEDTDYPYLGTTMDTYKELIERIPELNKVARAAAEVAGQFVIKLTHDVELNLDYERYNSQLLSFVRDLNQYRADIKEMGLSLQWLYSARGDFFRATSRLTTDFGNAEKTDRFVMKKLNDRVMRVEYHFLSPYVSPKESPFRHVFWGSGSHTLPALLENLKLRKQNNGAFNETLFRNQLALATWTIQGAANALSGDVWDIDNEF
Test: SPR; B = KD 1-100 nM
Starred links: 1 amine or outer side, 2 acyl side, 3 side chain; linkers in the order of their positions; H or OH if unused. Positions of bridges follow the written chain, without caps; N, C: chain ends. Non-standard residues stand in square brackets, D forms with d. F3COO(PEG4Me) = (S)-3-(3-((2,5,8,11-tetraoxatridecan-13-yl)carbamoyl)phenyl)-2-aminopropanoic acid, COCCOCCOCCOCCNC(=O)c1cccc(C[C@H](N[*:1])C(=O)[*:2])c1; E(PEG4Me) = (S)-18-amino-15-oxo-2,5,8,11-tetraoxa-14-azanonadecane-19-oic acid, COCCOCCOCCOCCNC(=O)CC[C@H](N[*:1])C(=O)[*:2]; F4aao = (S)-2-amino-3-(4-(carboxymethoxy)phenyl)propanoic acid, O=C([C@H](Cc1ccc(OCC(=O)[*:3])cc1)N[*:1])[*:2]; Nle(6-morpholino) = N[C@@H](CCCCN1CCOCC1)C(=O)O; Trp(7-aza) = N[C@@H](Cc1c[nH]c2ncccc12)C(=O)O; NMePhe(3-Cl) = CN[C@@H](Cc1cccc(Cl)c1)C(=O)O; NMeY = CN[C@@H](Cc1ccc(O)cc1)C(=O)O

# Binder, Result
data = [
    ("{CH2CO}-AV[NMePhe(3-Cl)]VWNY[F4aao]II[E(PEG4Me)][Nle(6-morpholino)]F[NMeY]C-NH2 (thioether N-15; also: linker PEG4c, attachment site not given here) [849_0405]", "1 to 100 nM"),
]

Let us move to another entry and its KD.
Consider {CH2CO}-AV[NMePhe(3-Cl)]V[Trp(7-aza)]NY[F4aao]II[E(PEG4Me)]R[F3COO(PEG4Me)][NMeY]C-NH2 (thioether N-15; also: linker PEG4c, attachment site not given here) [849_0415] . Its measured KD is 1 to 100 nM
